All values here come from patent US11999732B2.

- TARGET: human P2X3 receptor (Homo sapiens, UniProt P56373)
- Construct: expressed in transfected cells; host or cells: CHO-K1
- Sequence (P56373 whole entry): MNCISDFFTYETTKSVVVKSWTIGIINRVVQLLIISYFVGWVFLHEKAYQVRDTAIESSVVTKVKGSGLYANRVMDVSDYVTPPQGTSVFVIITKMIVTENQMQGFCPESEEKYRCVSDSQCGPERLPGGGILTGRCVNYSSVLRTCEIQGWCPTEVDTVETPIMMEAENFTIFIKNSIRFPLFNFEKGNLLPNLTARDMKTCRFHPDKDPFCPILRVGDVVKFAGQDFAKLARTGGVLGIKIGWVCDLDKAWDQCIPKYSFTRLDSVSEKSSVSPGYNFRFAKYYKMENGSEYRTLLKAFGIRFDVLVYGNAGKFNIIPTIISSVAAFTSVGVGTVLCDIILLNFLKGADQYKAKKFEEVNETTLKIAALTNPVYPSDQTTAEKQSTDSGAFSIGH
- TEST_DESCRIPTION: Calcium luminescence (photoprotein) assay in CHO-K1 cells co-expressing human P2X3 receptor, α,β-Met-ATP stimulation, FLEXSTATION readout
- Assay type: cell-based
- PARTICULARS: Table 6; human P2X3 receptor antagonist activity, CHO-K1 cells, α,β-Met-ATP; read-out: h-P2X3 IC50
MEASURED_METRIC: IC50 (nM)
Write down the numeric answer in nM and omit the unit.

Q: Reported IC50, compound O=C1N2CC(CC3CCCCC3)N=C2c2ncc(N3CCOCC3)cc2N1Cc1ccc(Cl)cc1 (stereo not drawn) : ____
Ans: 1080

Q: Reported IC50, compound COc1cc(CN2C(=O)N3C(=NC(C)C3C)c3ncc(N4CCOCC4)cc32)cc(OC)c1 (stereo not drawn) : ____
Ans: 636

Q: Reported IC50, compound CCC1CN2C(=O)N(Cc3cc(OC)cc(OC)c3)c3cc(N4CCOCC4)cnc3C2=N1 (stereo not drawn) : ____
Ans: 278
